# Tested on: UO-31
# assay-summary: NCI tumour cell line growth inhibition, 48 h
Active and inactive are the calls of the source. No stated cut-off is given here; in the data, active = GI50 up to about 1.1 µM and inactive = higher.
Classes to choose from: Y for active, N for inactive

Answered cases to consult:
C=C1CCC(CC[C@@H]2CC[C@]3(OC2)O[C@@]2(O)CC[C@]3(C)OC2(C)C)C(C)(C)[C@H]1C/C=C1/C(=O)OC[C@@H]1O (stereo partly specified) = N
Cc1cc(C)c(C2=NO[C@@H]3[C@H]2C(=O)C=C2N(Cc4ccccc4)CCO[C@@]23O)c(C)c1 = N
CC(=O)c1cccc2c1CC1(C2)Cc2ccc3c(c2C1=O)CCC3 (stereo unspecified) = N
COc1ccc(CC2NCCc3cc(OC)c(OC)cc32)cc1Br (stereo unspecified) = N
O=C1CS(=O)(=O)C(c2cccc(Oc3ccccc3)c2)N1c1cc(Cl)ccc1Cl (stereo unspecified) = N
CC1CC(C)CC(C)C(O)/C(C#N)=C/C=C/CC(C2CCCC2C(=O)O)OC(=O)CC(O)C(C)C1 (stereo unspecified) = Y

Turning now to a further record.
Ask: For O=C1C2C(C(=O)N1c1ccccc1)C1(c3ccccc3)OC2(c2ccccc2)c2ccccc21 (stereo unspecified) , which call appears in the assay record?
Result: N

###

Please go through the items and note down their GI50.
# Tested on: CAKI-1
# assay-summary: NCI tumour cell line growth inhibition, 48 h
Active and inactive are the calls of the source. Rule as the data show it: active = GI50 up to about 1.1 µM and inactive = higher.

As a guide, the following entries are already answered.
C[n+]1c2ccc(Cl)cc2nc2cc(-c3ccccc3)ccc21 = 16.4 µM (inactive)
COc1ccccc1/C(=N\OCCC(=O)O)c1cccs1 = > 100 µM (inactive)
CCOC(=O)C1(C(=O)OCC)C[C@@H](C)[C@@H](O)C1 = > 100 µM (inactive)
CCCCCCCCCCCCOP(=O)(O)OCC(N)C(=O)O (stereo not given) = 30.1 µM (inactive)

# next compound below
Ask: I am curious: what GI50 value has been reported for "Nc1ccc(Sc2c3ccccc3nc3ccccc23)cc1" ?
Result: 18.5 µM (inactive)

###

# System: Malme-3M
# assay-summary: NCI tumour cell line growth inhibition, 48 h
Active and inactive are the calls of the source. No stated cut-off is given here; in the data, active = GI50 up to about 1.1 µM and inactive = higher.
Assignment: determine reported GI50 for the given molecules.

CC(C)(C)c1cc(C(C)(C)C)c(SSc2c(C(C)(C)C)cc(C(C)(C)C)c(O)c2O)c(O)c1O = 21.4 µM (inactive)
CC(C)C(=O)N1C(=O)O[C@@H](c2ccccc2)[C@H]1C = > 100 µM (inactive)

Batch of 3 molecules: report GI50 for each.
1. COC(=O)[C@H]1[C@H](C(=O)OC)[C@@H](C)c2c(ccc3c2[nH]c2ccccc23)[C@@H]1C
2. COC(=O)C1CC(=O)O[C@H]1c1ccc(OC)c(OC)c1 (stereo not given in full)
3. CN1CCc2nc(N)nc(-c3nc(N)nc4c3CN(C)CC4)c2C1

Result:
49.8 µM (inactive)
> 100 µM (inactive)
> 100 µM (inactive)

###

# Tested on: HOP-92
# assay-summary: NCI tumour cell line growth inhibition, 48 h
Active and inactive are the calls of the source. Cut-off read from the data, not from the text of the source: active = GI50 up to about 1.1 µM and inactive = higher.
parameter-measured: GI50

Field: example entries. Status: answers known.
Cc1cn([C@@H]2O[C@H](CO[Si](C)(C)C(C)(C)C)[C@]3(O[C@H]3C(=O)NO)[C@H]2O[Si](C)(C)C(C)(C)C)c(=O)[nH]c1=O = 1.94 µM (inactive)
CCOC(=O)CC[C@@H](NC(=O)c1ccc(NCc2ccc3nc(OC)c(OC)nc3c2)cc1)C(=O)OCC = 11.4 µM (inactive)

Parameters: items (list). Returns: GI50 for each item.
1. CCOC(=O)CCCSCCCC(=O)CCCSCCCC(=O)OCC
2. CCOC(=O)C1=C(C)OC(=O)[C@@]2(OC)C=C(Cl)[C@@]12C
3. CCOC(=O)C(Cc1c(-c2[nH]c3ccccc3c2CC(NC(=O)CNC(C)=O)C(=O)OCC)[nH]c2ccccc12)NC(=O)CNC(C)=O (stereo not given)
4. [N-]=[N+]=NC1C2CC3CC(C2)CC1C3 (stereo not given)
5. C[Si](C)(C)C#CCO[Si](C)(C)C

Result:
1: > 100 µM (inactive); 2: > 100 µM (inactive); 3: 26.3 µM (inactive); 4: > 100 µM (inactive); 5: 18.2 µM (inactive)

Give one value of GI50 per listed compound.
1. CCN(CC)CCOC(c1cc(OC)ccc1OC)c1ccc2n1-c1ccccc1OC2 (stereo not given)
2. O=C(O)/C(Cl)=C(/Cl)C(=O)Nc1cccc(Cl)c1

Result:
["1.89 µM (inactive)", "14.6 µM (inactive)"]

Ask: What value of GI50 has been recorded for this entry: "CC1=Nn2c(nnc2-c2ccccc2Cl)NC(C)(C)C1"
Result: > 100 µM (inactive)
